test: physchem; details: 37 °C, simulated gastric fluid, thermodynamic from solid, Solub
endpoint-name: solubility at 24 h (mg/mL)
Reply numerically in mg/mL, unit not repeated.

Ask: Give recorded solubility at 24 h. COc1cc(N2CCC(N3CCN(C)CC3)CC2)ccc1Nc1ncc(Cl)c(Nc2ccccc2P(C)(C)=O)n1 [Form A, brigatinib]
Reply: 51.7

###

assay: Quantitative solubility testing, set of 24 solvents (HPLC); type: physicochemical; conditions: p-xylene, 20 °C, organic solvent or mixture, thermodynamic from solid
endpoint-name: solubility at 24 h (µg/mL)
Reply numerically in µg/mL, unit not repeated.

Ask: Give recorded solubility at 24 h. COc1cc(N2CCC(N3CCN(C)CC3)CC2)ccc1Nc1ncc(Cl)c(Nc2ccccc2P(C)(C)=O)n1
Reply: 350

###

assay: Quantitative solubility testing, set of 24 solvents (HPLC); type: physicochemical; details: 1-butanol, 20 °C, organic solvent or mixture, thermodynamic from solid
endpoint-name: solubility at 24 h (mg/mL)
Reply numerically in mg/mL, unit not repeated.

Ask: Give recorded solubility at 24 h. COc1cc(N2CCC(N3CCN(C)CC3)CC2)ccc1Nc1ncc(Cl)c(Nc2ccccc2P(C)(C)=O)n1
Reply: 17.7

###

experiment: physchem; conditions: 37 °C, pH 6.5, aqueous buffer, thermodynamic from solid, Solubility
endpoint-name: solubility

Ask: Give recorded solubility. COc1cc(N2CCC(N3CCN(C)CC3)CC2)ccc1Nc1ncc(Cl)c(Nc2ccccc2P(C)(C)=O)n1 [Form A, brigatinib]
Reply: 6000 µg/mL

###

Test: Freeze-drying feasibility study
Type: physicochemical
Conditions: organic solvent or mixture, thermodynamic from solid; 2,2,2-trifluoroethanol/water (90:10); data obtained from freeze drying experiment
Description: Freeze-drying. Six freeze-drying experiments were performed with samples of Form A as described in Table 10. Samples 1, 2, and 4 remained mostly crystalline, but samples 3 and 5 were amorphous and contained about 15-16% residual solvent. Sample 6 was amorphous and contained about 7% residual solvent. Forms E and F were produced using this method. However, due to the variable form and solvation, freeze-drying was not further employed to obtain amorphous brigatinib.
endpoint-name: solubility

Ask: Give recorded solubility. COc1cc(N2CCC(N3CCN(C)CC3)CC2)ccc1Nc1ncc(Cl)c(Nc2ccccc2P(C)(C)=O)n1
Reply: > 172 mg/mL

###

assay: physchem; conditions: pH 7.2, aqueous buffer, thermodynamic from solid
endpoint-name: solubility (mg/mL)
Reply numerically in mg/mL, unit not repeated.

Ask: Give recorded solubility. COc1cc(N2CCC(N3CCN(C)CC3)CC2)ccc1Nc1ncc(Cl)c(Nc2ccccc2P(C)(C)=O)n1 [Form A, brigatinib]
Reply: 11

###

assay: physchem; details: pH 1.7, simulated gastric fluid, thermodynamic from solid
endpoint-name: solubility (mg/mL)
Reply numerically in mg/mL, unit not repeated.

Ask: Give recorded solubility. COc1cc(N2CCC(N3CCN(C)CC3)CC2)ccc1Nc1ncc(Cl)c(Nc2ccccc2P(C)(C)=O)n1 [Form A, brigatinib]
Reply: 177

###

experiment: physchem; conditions: pH 2.4, aqueous buffer, thermodynamic from solid
endpoint-name: solubility (mg/mL)
Reply numerically in mg/mL, unit not repeated.

Ask: Give recorded solubility. COc1cc(N2CCC(N3CCN(C)CC3)CC2)ccc1Nc1ncc(Cl)c(Nc2ccccc2P(C)(C)=O)n1 [Form A, brigatinib]
Reply: 329

###

assay: physchem; conditions: 25 °C, pH 6.8, aqueous buffer, thermodynamic from solid, Solub
endpoint-name: solubility at 24 h (µg/mL)
Reply numerically in µg/mL, unit not repeated.

Ask: Give recorded solubility at 24 h. COc1cc(N2CCC(N3CCN(C)CC3)CC2)ccc1Nc1ncc(Cl)c(Nc2ccccc2P(C)(C)=O)n1 [Form A, brigatinib]
Reply: 8600

###

test: physchem; settings: 37 °C, pH 4.5, aqueous buffer, thermodynamic from solid, Solubility
endpoint-name: solubility (mg/mL)
Reply numerically in mg/mL, unit not repeated.

Ask: Give recorded solubility. COc1cc(N2CCC(N3CCN(C)CC3)CC2)ccc1Nc1ncc(Cl)c(Nc2ccccc2P(C)(C)=O)n1 [Form A, brigatinib]
Reply: 26

###

assay: Quantitative solubility testing, set of 24 solvents (HPLC); type: physicochemical; details: 1,4-dioxane, 20 °C, organic solvent or mixture, thermodynamic from solid, 1,4-Dioxane
endpoint-name: solubility at 24 h (µg/mL)
Reply numerically in µg/mL, unit not repeated.

Ask: Give recorded solubility at 24 h. COc1cc(N2CCC(N3CCN(C)CC3)CC2)ccc1Nc1ncc(Cl)c(Nc2ccccc2P(C)(C)=O)n1 [Brigatinib]
Reply: 4010

###

assay: physchem; details: 25 °C, water, thermodynamic from solid, Solub
endpoint-name: solubility at 24 h

Ask: Give recorded solubility at 24 h. COc1cc(N2CCC(N3CCN(C)CC3)CC2)ccc1Nc1ncc(Cl)c(Nc2ccccc2P(C)(C)=O)n1 [Form A, brigatinib]
Reply: 110 µg/mL

###

assay: Quantitative solubility testing, set of 24 solvents (HPLC); type: physicochemical; details: N,N-dimethylacetamide, 20 °C, organic solvent or mixture, thermodynamic from solid
endpoint-name: solubility at 24 h (µg/mL)
Reply numerically in µg/mL, unit not repeated.

Ask: Give recorded solubility at 24 h. COc1cc(N2CCC(N3CCN(C)CC3)CC2)ccc1Nc1ncc(Cl)c(Nc2ccccc2P(C)(C)=O)n1
Reply: 470

###

assay: Quantitative solubility testing, set of 24 solvents (HPLC); type: physicochemical; conditions: water, 20 °C, thermodynamic from solid, triplicate
endpoint-name: solubility at 24 h

Ask: Give recorded solubility at 24 h. COc1cc(N2CCC(N3CCN(C)CC3)CC2)ccc1Nc1ncc(Cl)c(Nc2ccccc2P(C)(C)=O)n1 [Brigatinib]
Reply: 90 µg/mL

###

assay: Quantitative solubility testing, set of 24 solvents (HPLC); format: physicochemical; details: acetone, 20 °C, organic solvent or mixture, thermodynamic from solid
endpoint-name: solubility at 24 h

Ask: Give recorded solubility at 24 h. COc1cc(N2CCC(N3CCN(C)CC3)CC2)ccc1Nc1ncc(Cl)c(Nc2ccccc2P(C)(C)=O)n1
Reply: 690 µg/mL

###

experiment: physchem; conditions: simulated gastric fluid, thermodynamic from solid, Solubility
endpoint-name: solubility (mg/mL)
Reply numerically in mg/mL, unit not repeated.

Ask: Give recorded solubility. COc1cc(N2CCC(N3CCN(C)CC3)CC2)ccc1Nc1ncc(Cl)c(Nc2ccccc2P(C)(C)=O)n1 [Form A, brigatinib]
Reply: 52

###

test: Quantitative solubility testing, set of 24 solvents (HPLC); type: physicochemical; conditions: isopropanol, 20 °C, organic solvent or mixture, thermodynamic from solid
endpoint-name: solubility at 24 h (µg/mL)
Reply numerically in µg/mL, unit not repeated.

Ask: Give recorded solubility at 24 h. COc1cc(N2CCC(N3CCN(C)CC3)CC2)ccc1Nc1ncc(Cl)c(Nc2ccccc2P(C)(C)=O)n1
Reply: 1550

###

assay: Quantitative solubility testing, set of 24 solvents (HPLC); assay type: physicochemical; conditions: nitromethane, 20 °C, organic solvent or mixture, thermodynamic from solid
endpoint-name: solubility at 24 h
Answer with the value and then the unit.

Ask: Give recorded solubility at 24 h. COc1cc(N2CCC(N3CCN(C)CC3)CC2)ccc1Nc1ncc(Cl)c(Nc2ccccc2P(C)(C)=O)n1
Reply: 410 µg/mL
